This collection of values is drawn from ChEMBL document CHEMBL3862026.

# targetSystem: Muscarinic acetylcholine receptor M4 (Rattus norvegicus)
# assayNotes: Displacement of [3H]QNB from muscarinic M4 receptor in rat brain homogenates at 1 uM after 60 mins relative to control
# Type: tissue-based

givenSmiles	inhibition
CN(C)Cc1ccc(CSCCNc2nnc(-c3ccccc3)cc2[N+](=O)[O-])o1	16%
CN(C)Cc1ccc(CSCCN/C(=C/[N+](=O)[O-])N/N=C/c2ccccc2)o1	62.3%
Cc1nnc(NCCSCc2ccc(CN(C)C)o2)c([N+](=O)[O-])c1-c1ccccc1	37%
CN(C)Cc1ccc(CSCCNc2nc(N)no2)o1	42.7%
CN(C)Cc1ccc(CSCCNc2nc(N)n[nH]2)o1	43.6%
CN(C)Cc1ccc(CSCCNc2nncc(-c3ccccc3)c2[N+](=O)[O-])o1	18%
Cc1cc([N+](=O)[O-])c(NCCSCc2ccc(CN(C)C)o2)nn1	57%
CN(C)Cc1ccc(CSCCNc2nnc(-c3ccccc3)c(-c3ccccc3)c2[N+](=O)[O-])o1	48%
CN(C)Cc1ccc(CSCCNc2ncccn2)o1	24.9%
CN(C)Cc1ccc(CSCCNc2ccc(Cl)nn2)o1	7.7%
CN(C)Cc1ccc(CSCCN/C(=C/[N+](=O)[O-])N2CCCCC2)o1	47.7%

----------
# targetSystem: UniProtKB P10980
# Sequence (whole entry): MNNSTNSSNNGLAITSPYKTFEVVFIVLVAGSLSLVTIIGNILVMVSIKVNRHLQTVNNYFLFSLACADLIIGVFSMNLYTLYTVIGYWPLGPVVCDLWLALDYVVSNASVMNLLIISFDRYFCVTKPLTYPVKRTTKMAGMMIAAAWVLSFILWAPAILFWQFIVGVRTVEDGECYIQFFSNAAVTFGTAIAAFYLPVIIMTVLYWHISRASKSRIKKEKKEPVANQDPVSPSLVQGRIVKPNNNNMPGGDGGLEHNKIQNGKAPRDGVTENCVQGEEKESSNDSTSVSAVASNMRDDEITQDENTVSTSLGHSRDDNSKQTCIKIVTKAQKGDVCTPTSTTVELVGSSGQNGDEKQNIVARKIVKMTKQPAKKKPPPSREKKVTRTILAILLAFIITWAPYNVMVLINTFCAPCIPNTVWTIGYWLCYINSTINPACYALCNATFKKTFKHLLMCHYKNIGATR
# assayNotes: Displacement of [3H]QNB from muscarinic M2 receptor in rat brain homogenates at 1 uM after 60 mins relative to control
# Format: tissue-based
Quick list: inhibition per entry.
quantityName: inhibition

givenSmiles	quantityName	recordedValue
CN(C)Cc1ccc(CSCCNc2nnccc2[N+](=O)[O-])o1	inhibition	97%
Cc1c(-c2ccccc2)nnc(NCCSCc2ccc(CN(C)C)o2)c1[N+](=O)[O-]	inhibition	72%
CN(C)Cc1ccc(CSCCNc2nc(N)no2)o1	inhibition	72.8%
CN(C)Cc1ccc(CSCCN/C(=C/[N+](=O)[O-])N2CCCCC2)o1	inhibition	54%
CN(C)Cc1ccc(CSCCNc2nnc(-c3ccccc3)c(-c3ccccc3)c2[N+](=O)[O-])o1	inhibition	51%

----------
inhibition by entry:
# targetSystem: Muscarinic acetylcholine receptor M3 (Rattus norvegicus)
# assayNotes: Displacement of [3H]QNB from muscarinic M3 receptor in rat brain homogenates at 1 uM after 60 mins relative to control
# Format: tissue-based
quantityName: inhibition (%)

givenSmiles	u	recordedValue
Cc1nnc(NCCSCc2ccc(CN(C)C)o2)c([N+](=O)[O-])c1C	%	48
Cc1cccc(Nc2ccccc2C(=O)NCCSCc2ccc(CN(C)C)o2)c1C	%	69.6
CN(C)Cc1ccc(CSCCNc2nc(N)no2)o1	%	49.8
Cc1cc([N+](=O)[O-])c(NCCSCc2ccc(CN(C)C)o2)nn1	%	46
CN(C)Cc1ccc(CSCCNc2nnc(-c3ccccc3)c(-c3ccccc3)c2[N+](=O)[O-])o1	%	73
CS/C(=N\S(=O)(=O)c1ccc(C)cc1)NCCSCc1ccc(CN(C)C)o1	%	18.5
CN(C)Cc1ccc(CSCCNC(=O)Cc2ccccc2Nc2c(Cl)cccc2Cl)o1	%	43.5
CN(C)Cc1ccc(CSCCN/C(=C/[N+](=O)[O-])N/N=C/c2ccccc2)o1	%	66.6
Cc1nnc(NCCSCc2ccc(CN(C)C)o2)c([N+](=O)[O-])c1-c1ccccc1	%	52
CN(C)Cc1ccc(CSCCNc2ccc(Cl)nn2)o1	%	2.3

----------
# targetSystem: Muscarinic acetylcholine receptor M1 (Rattus norvegicus) (UniProt P08482)
# Sequence (whole entry): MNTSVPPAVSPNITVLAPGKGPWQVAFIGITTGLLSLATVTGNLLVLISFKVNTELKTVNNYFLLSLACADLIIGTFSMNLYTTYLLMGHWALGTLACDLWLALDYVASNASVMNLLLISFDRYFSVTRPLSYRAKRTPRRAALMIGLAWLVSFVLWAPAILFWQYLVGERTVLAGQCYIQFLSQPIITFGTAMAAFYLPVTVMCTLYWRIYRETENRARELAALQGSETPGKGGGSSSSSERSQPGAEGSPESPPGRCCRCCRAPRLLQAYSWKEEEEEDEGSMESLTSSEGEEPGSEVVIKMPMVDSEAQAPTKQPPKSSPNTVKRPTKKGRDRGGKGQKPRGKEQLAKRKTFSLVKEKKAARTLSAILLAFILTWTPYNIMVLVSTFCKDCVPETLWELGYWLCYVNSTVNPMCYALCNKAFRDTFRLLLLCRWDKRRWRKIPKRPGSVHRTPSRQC
# assayNotes: Displacement of [3H]QNB from muscarinic M1 receptor in rat brain homogenates at 1 uM after 60 mins relative to control
# Format: tissue-based

givenSmiles	targetSystem	inhibition (%)
CN(C)Cc1ccc(CSCCNc2ncccn2)o1	Muscarinic acetylcholine receptor M1 (Rattus norvegicus) (UniProt P08482)	56.2
CN(C)Cc1ccc(CSCCNC(=O)Cc2ccccc2Nc2c(Cl)cccc2Cl)o1	Muscarinic acetylcholine receptor M1 (Rattus norvegicus) (UniProt P08482)	60.1
CN(C)Cc1ccc(CSCCNc2nnccc2[N+](=O)[O-])o1	Muscarinic acetylcholine receptor M1 (Rattus norvegicus) (UniProt P08482)	80
Cc1c(-c2ccccc2)nnc(NCCSCc2ccc(CN(C)C)o2)c1[N+](=O)[O-]	Muscarinic acetylcholine receptor M1 (Rattus norvegicus) (UniProt P08482)	84
CN(C)Cc1ccc(CSCCNc2nncc(-c3ccccc3)c2[N+](=O)[O-])o1	Muscarinic acetylcholine receptor M1 (Rattus norvegicus) (UniProt P08482)	40
CN(C)Cc1ccc(CSCCNc2nc(N)no2)o1	Muscarinic acetylcholine receptor M1 (Rattus norvegicus) (UniProt P08482)	69.9
CN(C)Cc1ccc(CSCCN/C(=C/[N+](=O)[O-])N/N=C/c2ccccc2)o1	Muscarinic acetylcholine receptor M1 (Rattus norvegicus) (UniProt P08482)	88.5
CN(C)Cc1ccc(CSCCNc2ccc(Cl)nn2)o1	Muscarinic acetylcholine receptor M1 (Rattus norvegicus) (UniProt P08482)	25.2
Cc1nnc(NCCSCc2ccc(CN(C)C)o2)c([N+](=O)[O-])c1C	Muscarinic acetylcholine receptor M1 (Rattus norvegicus) (UniProt P08482)	74
CN(C)Cc1ccc(CSCCNc2nnc(-c3ccccc3)c(-c3ccccc3)c2[N+](=O)[O-])o1	Muscarinic acetylcholine receptor M1 (Rattus norvegicus) (UniProt P08482)	76
Cc1cc([N+](=O)[O-])c(NCCSCc2ccc(CN(C)C)o2)nn1	Muscarinic acetylcholine receptor M1 (Rattus norvegicus) (UniProt P08482)	79
CN(C)Cc1ccc(CSCCNc2nnc(-c3ccccc3)cc2[N+](=O)[O-])o1	Muscarinic acetylcholine receptor M1 (Rattus norvegicus) (UniProt P08482)	40
C=C1C(C)=NN/C(=C\[N+](=O)[O-])N1CCSCc1ccc(CN(C)C)o1	Muscarinic acetylcholine receptor M1 (Rattus norvegicus) (UniProt P08482)	88.8
Cc1cccc(Nc2ccccc2C(=O)NCCSCc2ccc(CN(C)C)o2)c1C	Muscarinic acetylcholine receptor M1 (Rattus norvegicus) (UniProt P08482)	77.4
CS/C(=N\S(=O)(=O)c1ccc(C)cc1)NCCSCc1ccc(CN(C)C)o1	Muscarinic acetylcholine receptor M1 (Rattus norvegicus) (UniProt P08482)	37.5
CN(C)Cc1ccc(CSCCNc2nc(N)n[nH]2)o1	Muscarinic acetylcholine receptor M1 (Rattus norvegicus) (UniProt P08482)	57.4
Cc1nnc(NCCSCc2ccc(CN(C)C)o2)c([N+](=O)[O-])c1-c1ccccc1	Muscarinic acetylcholine receptor M1 (Rattus norvegicus) (UniProt P08482)	60
CN(C)Cc1ccc(CSCCN/C(=C/[N+](=O)[O-])N2CCCCC2)o1	Muscarinic acetylcholine receptor M1 (Rattus norvegicus) (UniProt P08482)	72.1

----------
# targetSystem: UniProt:P08483
# Sequence (P08483 whole entry, looked up): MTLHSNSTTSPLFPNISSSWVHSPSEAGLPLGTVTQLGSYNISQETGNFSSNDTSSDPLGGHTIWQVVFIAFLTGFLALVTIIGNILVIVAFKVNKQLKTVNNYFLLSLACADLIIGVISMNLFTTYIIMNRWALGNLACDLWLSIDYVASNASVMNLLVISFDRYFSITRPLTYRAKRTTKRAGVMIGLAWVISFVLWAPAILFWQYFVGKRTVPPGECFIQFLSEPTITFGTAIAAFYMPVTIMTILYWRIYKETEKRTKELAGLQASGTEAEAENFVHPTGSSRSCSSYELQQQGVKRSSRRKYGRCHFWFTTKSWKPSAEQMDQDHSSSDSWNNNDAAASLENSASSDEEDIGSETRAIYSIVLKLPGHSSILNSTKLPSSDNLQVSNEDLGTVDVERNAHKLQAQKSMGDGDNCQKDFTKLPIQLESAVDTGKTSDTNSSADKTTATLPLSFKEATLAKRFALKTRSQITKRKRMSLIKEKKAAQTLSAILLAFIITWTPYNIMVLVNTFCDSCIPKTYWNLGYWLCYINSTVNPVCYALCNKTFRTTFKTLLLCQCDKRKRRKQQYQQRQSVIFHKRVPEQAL
# assayNotes: Displacement of [3H]QNB from muscarinic M3 receptor in rat brain homogenates at 1 uM after 60 mins relative to control
# Assay type: tissue-based
quantityName: inhibition (%)

givenSmiles	recordedValue
CN(C)Cc1ccc(CSCCNc2nncc(-c3ccccc3)c2[N+](=O)[O-])o1	27
CN(C)Cc1ccc(CSCCNc2ncccn2)o1	24.3
CN(C)Cc1ccc(CSCCNc2nnc(-c3ccccc3)cc2[N+](=O)[O-])o1	38
Cc1c(-c2ccccc2)nnc(NCCSCc2ccc(CN(C)C)o2)c1[N+](=O)[O-]	63
CN(C)Cc1ccc(CSCCNc2nc(N)n[nH]2)o1	30.1
CN(C)Cc1ccc(CSCCN/C(=C/[N+](=O)[O-])N2CCCCC2)o1	41.5
CN(C)Cc1ccc(CSCCNc2nnccc2[N+](=O)[O-])o1	32
C=C1C(C)=NN/C(=C\[N+](=O)[O-])N1CCSCc1ccc(CN(C)C)o1	90.4
